Source of measurements: the supplement of paper PMC12406974

Entries and their measured maximum observed lethal fraction follow.
tested on: U2OS BAX/BAK1 DKO; assay: maximum observed lethal fraction; higher = more cell death; conditions: 1 µM;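 also: FLICK assay: SYTOX Green fluorescence of dead cells tracked over time after drugging in 96-well plates, with total cell counts taken from Triton X-100 lysed wells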
Reply with just the number.

CC1(C)CCC(c2ccc(Cl)cc2)=C(CN2CCN(c3ccc(C(=O)NS(=O)(=O)c4ccc(N[C@H](CCN5CCOCC5)CSc5ccccc5)c(S(=O)(=O)C(F)(F)F)c4)cc3)CC2)C1 [ABT-263] ... 0.0545
CNCc1ccc(-c2[nH]c3cc(F)cc4c3c2CCNC4=O)cc1 [Rucaparib] ... 0.0528
O=C(NOC[C@H](O)CO)c1ccc(F)c(F)c1Nc1ccc(I)cc1F [Mirdametinib] ... 0.078
CC(C)C[C@H](NC(=O)[C@H](Cc1ccccc1)NC(=O)c1cnccn1)B(O)O [Bortezomib] ... 0.443
C=CC(=O)Nc1ccc(C(=O)Nc2[nH]nc3c2CN(C(=O)N[C@H](CN(C)C)c2ccccc2)C3(C)C)cc1 [YKL-5-124] ... 0.0802

// fetch maximum observed lethal fraction; item: CC[C@@]1(O)C(=O)OCc2c1cc1n(c2=O)Cc2cc3c(CN(C)C)c(O)ccc3nc2-1 [Topotecan] ; system: U2OS BAX/BAK1 DKO 0.0845

// fetch maximum observed lethal fraction; item: COc1ccc(C[C@H]2NC[C@H](O)[C@H]2OC(C)=O)cc1 [Anisomycin] ; system: U2OS BAX/BAK1 DKO 0.119

// fetch maximum observed lethal fraction; item: C[C@H]1CCC/C=C/[C@@H]2C[C@H](O)C[C@H]2[C@H](O)/C=C/C(=O)O1 [Brefeldin A] ; system: U2OS BAX/BAK1 DKO 0.0708

// fetch maximum observed lethal fraction; item: C#C[C@@]1(O)[C@@H](CO)O[C@@H](n2ccc(N)nc2=O)[C@@H]1O [Ethynylcytidine] ; system: U2OS BAX/BAK1 DKO 0.0819

// fetch maximum observed lethal fraction; item: COC(=O)C[C@](O)(CCCC(C)(C)O)C(=O)O[C@@H]1C(OC)=C[C@]23CCCN2CCc2cc4c(cc2[C@H]13)OCO4 [Homoharringtonine] ; system: U2OS BAX/BAK1 DKO 0.112

// fetch maximum observed lethal fraction; item: O=C(O)C1(C(=O)O)CCC1.[NH2-].[NH2-].[Pt+2] [Carboplatin] ; system: U2OS BAX/BAK1 DKO 0.0593

// fetch maximum observed lethal fraction; item: CO[C@H]1C[C@@H]2CC[C@@H](C)[C@@](O)(O2)C(=O)C(=O)N2CCCC[C@H]2C(=O)O[C@H]([C@H](C)C[C@@H]2CC[C@@H](O)[C@H](OC)C2)CC(=O)[C@H](C)/C=C(\C)[C@@H](O)[C@@H](OC)C(=O)[C@H](C)C[C@H](C)/C=C/C=C/C=C/1C [Rapamycin] ; system: U2OS BAX/BAK1 DKO 0.0613

// fetch maximum observed lethal fraction; item: CN(C)CC[C@H](CSc1ccccc1)Nc1ccc(S(=O)(=O)NC(=O)c2ccc(N3CCN(Cc4ccccc4-c4ccc(Cl)cc4)CC3)cc2)cc1[N+](=O)[O-] [ABT-737] ; system: U2OS BAX/BAK1 DKO 0.0569

// fetch maximum observed lethal fraction; item: NC1(C(=O)N[C@@H](CCO)c2ccc(Cl)cc2)CCN(c2nc[nH]c3nccc2-3)CC1 [Capivasertib] ; system: U2OS BAX/BAK1 DKO 0.0697

// fetch maximum observed lethal fraction; item: CC1(C)CCC(CN2CCN(c3ccc(C(=O)NS(=O)(=O)c4ccc(NCC5CCOCC5)c([N+](=O)[O-])c4)c(Oc4cnc5[nH]ccc5c4)c3)CC2)=C(c2ccc(Cl)cc2)C1 [ABT-199] ; system: U2OS BAX/BAK1 DKO 0.0531

// fetch maximum observed lethal fraction; item: CN1CC[C@H](c2c(O)cc(O)c3c(=O)cc(-c4ccccc4Cl)oc23)[C@H](O)C1 [Flavopiridol] ; system: U2OS BAX/BAK1 DKO 0.093

// fetch maximum observed lethal fraction; item: CCN1CCN(Cc2ccc(Nc3ncc(F)c(-c4cc(F)c5nc(C)n(C(C)C)c5c4)n3)nc2)CC1 [Abemaciclib] ; system: U2OS BAX/BAK1 DKO 0.0972

// fetch maximum observed lethal fraction; item: O=C(CCCCCCC(=O)Nc1ccccc1)NO [Vorinostat] ; system: U2OS BAX/BAK1 DKO 0.0635

// fetch maximum observed lethal fraction; item: Cc1[nH]c2ccccc2c1CCNCc1ccc(/C=C/C(=O)NO)cc1 [Panobinostat] ; system: U2OS BAX/BAK1 DKO 0.0939

// fetch maximum observed lethal fraction; item: Cc1cc(Nc2ccc(NC(=O)c3ccc(Nc4ccnc5ccccc45)cc3)cc2)nc(N)n1 [SGI-1027] ; system: U2OS BAX/BAK1 DKO 0.104

// fetch maximum observed lethal fraction; item: COc1cc([C@@H]2c3cc4c(cc3[C@@H](O[C@@H]3O[C@@H]5CO[C@@H](C)O[C@H]5[C@H](O)[C@H]3O)[C@H]3COC(=O)[C@H]23)OCO4)cc(OC)c1O [Etoposide] ; system: U2OS BAX/BAK1 DKO 0.0746

// fetch maximum observed lethal fraction; item: Cc1c2oc3c(C)ccc(C(=O)N[C@@H]4C(=O)N[C@H](C(C)C)C(=O)N5CCC[C@H]5C(=O)N(C)CC(=O)N(C)[C@@H](C(C)C)C(=O)O[C@@H]4C)c3nc-2c(C(=O)N[C@@H]2C(=O)N[C@H](C(C)C)C(=O)N3CCC[C@H]3C(=O)N(C)CC(=O)N(C)[C@@H](C(C)C)C(=O)O[C@@H]2C)c(N)c1=O [Actinomycin-D] ; system: U2OS BAX/BAK1 DKO 0.0822
